biological target: IDH1 R132C (Homo sapiens (Human), UniProt O75874, R132C); assay: IDH1/2 activity assay, forward reaction (isocitrate, NADP+), stopped-flow, IDH1 R132C; conditions: Oxidative (→ NADPH), read-out: Ki,αKG
Sequence (O75874 whole entry R132C): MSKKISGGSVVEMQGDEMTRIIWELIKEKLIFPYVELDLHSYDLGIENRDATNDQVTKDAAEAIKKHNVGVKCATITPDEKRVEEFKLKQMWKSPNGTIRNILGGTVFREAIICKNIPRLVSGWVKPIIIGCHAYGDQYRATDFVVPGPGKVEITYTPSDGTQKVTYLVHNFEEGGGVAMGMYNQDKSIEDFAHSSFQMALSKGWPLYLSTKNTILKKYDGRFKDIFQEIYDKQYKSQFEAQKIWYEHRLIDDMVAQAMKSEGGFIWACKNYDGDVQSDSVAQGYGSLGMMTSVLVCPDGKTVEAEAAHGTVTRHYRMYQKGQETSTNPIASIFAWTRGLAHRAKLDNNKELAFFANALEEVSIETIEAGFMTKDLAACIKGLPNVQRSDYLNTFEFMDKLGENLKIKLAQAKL

# compound, system, Ki
measured = [
    ("O=C(O)CCC(=O)C(=O)O [α-KG, α-Ketoglutarate]", "IDH1 R132C (Homo sapiens (Human), UniProt O75874, R132C)", "61 µM"),
]

----------
biological target: ICDH1 R132H (Homo sapiens (Human), UniProt O75874, R132H); assay: IDH1 R132H inhibition assay (NADPH/aKG, resazurin to resorufin fluorescence); type: biochemical; conditions: ratio of IC50 at 40 uM to 4 uM NADPH
Sequence (O75874 whole entry R132H): as the sequence (O75874 whole entry R132C) above, with C132H counted along it
Classify: 1.0 when IC50 Ratio (40/4) is strictly less than 3; 0.0 when IC50 Ratio (40/4) is not.

# molecule, label-value
records = [
    ("Cc1cc(C(=O)O)ccc1-c1ccc(/C=C2/NC(=O)N(Cc3ccc(Br)cc3)C2=O)o1", 1.0),
    ("Cc1c(/C=C2\\Sc3ccccc3C2=O)c(O)n2c(nc3ccccc32)c1C#N", 0.0),
    ("Cc1ccc(C2=NN(c3ccccc3)C(c3cn(CCC(=O)O)nc3-c3ccccc3)C2)cc1 (centres unmarked)", 0.0),
    ("O=C1NC(=S)S/C1=C\\c1cccc(OC(=O)c2cccc(F)c2)c1", 1.0),
    ("O=C1NC(=S)S/C1=C/c1cccc(OCc2ccc([N+](=O)[O-])cc2)c1", 1.0),
]

----------
biological target: IDH1 R132S (Homo sapiens (Human), UniProt O75874, R132S); assay: Oxidative decarboxylation of isocitrate to α-KG by IDH1 R132S (340 nm); type: biochemical; details: α-KG product inhibition, competitive with isocitrate; read-out: Ki
Sequence (O75874 whole entry R132S): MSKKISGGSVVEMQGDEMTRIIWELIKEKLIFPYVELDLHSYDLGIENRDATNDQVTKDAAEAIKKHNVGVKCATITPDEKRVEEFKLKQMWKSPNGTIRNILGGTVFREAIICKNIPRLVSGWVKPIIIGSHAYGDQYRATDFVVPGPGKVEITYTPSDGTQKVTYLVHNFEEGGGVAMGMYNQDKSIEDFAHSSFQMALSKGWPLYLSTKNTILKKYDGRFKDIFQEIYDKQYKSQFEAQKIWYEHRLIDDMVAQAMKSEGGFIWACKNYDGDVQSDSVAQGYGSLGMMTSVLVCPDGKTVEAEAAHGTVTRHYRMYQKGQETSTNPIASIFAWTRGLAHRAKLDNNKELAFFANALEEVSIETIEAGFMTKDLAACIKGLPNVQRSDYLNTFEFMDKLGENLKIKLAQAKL

# compound, Ki (µM)
measured = [
    ("O=C(O)CCC(=O)C(=O)O [α-KG, α-Ketoglutarate]", 45.3),
]

----------
target: UniProt:O75874; assay: IDH1/2 activity assay, forward reaction (isocitrate, NADP+), stopped-flow, IDH1 wild-type; type: biochemical; details: Oxidative (→ NADPH); WT; read-out: Ki,αKG

# compound, Ki, µM
rows = [
    ("O=C(O)CCC(=O)C(=O)O [α-KG, α-Ketoglutarate]", 610),
]

----------
target: IDH1 R132S (Homo sapiens (Human), UniProt O75874, R132S); assay: Oxidative decarboxylation of isocitrate to α-KG by IDH1 R132S (340 nm); assay type: biochemical; settings: IDH1R132S 30 ug/ml, NADP 0.5 mM, DL-isocitrate 5-650 uM; read-out: Oxalomalate Ki
pKi: −log10 of the molar value.

# molecule, system, pKi
data = [
    ("O=C(O)C(=O)C(C(=O)O)C(O)C(=O)O (stereo not shown) [Oxalomalate, oxalomalate]", "IDH1 R132S (Homo sapiens (Human), UniProt O75874, R132S)", 3.29),
]

----------
biological target: IDH1 wt (Homo sapiens (Human))
Sequence (O75874 whole entry): as the sequence (O75874 whole entry R132S) above, with S132R counted along it

# molecule, IC50
measured = [
    ("O=C1NC(=S)S/C1=C/c1cccc(OCc2ccc([N+](=O)[O-])cc2)c1", "69.3 µM"),
]

----------
target: ICDH1 R132H (Homo sapiens (Human), UniProt O75874, R132H); assay: IDH1 R132H inhibition assay (NADPH/aKG, resazurin to resorufin fluorescence); format: biochemical; conditions: read-out: ICDH IC50 (uM) @ 40 uM NADPH; IDH1 R132H; 40 uM (100x Km) NADPH
IC50 reference

# compound, value-relation-sign, IC50, µM
data = [
    ("Cc1cc(C(=O)O)ccc1-c1ccc(/C=C2/NC(=O)N(Cc3ccc(Br)cc3)C2=O)o1", "=", 19.2),
    ("O=C1NC(=S)S/C1=C\\c1cccc(OC(=O)c2cccc(F)c2)c1", "=", 14.7),
    ("Cc1ccc(C2=NN(c3ccccc3)C(c3cn(CCC(=O)O)nc3-c3ccccc3)C2)cc1 (centres unmarked)", "=", 41.4),
    ("O=C1NC(=S)S/C1=C/c1cccc(OCc2ccc([N+](=O)[O-])cc2)c1", "=", 33.2),
    ("Cc1c(/C=C2\\Sc3ccccc3C2=O)c(O)n2c(nc3ccccc32)c1C#N", ">", 100),
]
